Value source: ChEMBL document CHEMBL2010671

Tested on: Pseudomonas aeruginosa
Assay: Antimicrobial activity against ciprofloxacin-sensitive, SXT-resistant Pseudomonas aeruginosa ATCC 10145
Assay type: functional
quantity-name: MIC

> print(dat)
                       smiles.representation         measured.target  measured.result
 1  Nc1ncc(Cn2cc(CN3CCN(c4nc5c(cc4F)c(=O)c(C(=O)O)cn5C4CC4)CC3)nn2)c(N)n1  Pseudomonas aeruginosa         64 µg/mL
 2           COc1cc(Cc2cnc(N)nc2N)cc2c1OCCN2  Pseudomonas aeruginosa       > 64 µg/mL
 3  COc1cc(Cc2cnc(N)nc2Nc2nc3c(cc2F)c(=O)c(C(=O)O)cn3C2CC2)cc2c1OCCN2  Pseudomonas aeruginosa       > 64 µg/mL
 4  Nc1ncc(COCc2cn(-c3nc4c(cc3F)c(=O)c(C(=O)O)cn4C3CC3)nn2)c(N)n1  Pseudomonas aeruginosa       > 64 µg/mL
 5  CCOC(=O)c1cn(C2CC2)c2nc(NCc3cn(Cc4cnc(N)nc4N)nn3)c(F)cc2c1=O  Pseudomonas aeruginosa       > 64 µg/mL
 6  COc1cc(Cc2cnc(Nc3nc4c(cc3F)c(=O)c(C(=O)O)cn4C3CC3)nc2N)cc2c1OCCN2  Pseudomonas aeruginosa       > 64 µg/mL
 7  O=C(O)c1cn(C2CC2)c2cc(N3CCNCC3)c(F)cc2c1=O  Pseudomonas aeruginosa     ≤ 0.03 µg/mL
 8  C#CCN1CCN(c2nc3c(cc2F)c(=O)c(C(=O)O)cn3C2CC2)CC1  Pseudomonas aeruginosa          8 µg/mL
 9           COc1cc(Cc2cnc(N)nc2N)cc(OC)c1OC  Pseudomonas aeruginosa       > 64 µg/mL
10   C#CCNc1nc2c(cc1F)c(=O)c(C(=O)O)cn2C1CC1  Pseudomonas aeruginosa       > 64 µg/mL
11  [N-]=[N+]=Nc1nc2c(cc1F)c(=O)c(C(=O)O)cn2C1CC1  Pseudomonas aeruginosa       > 64 µg/mL
